Test system: Plasmodium falciparum
Assay: Antiplasmodial activity against chloroquine-resistant Plasmodium falciparum W2 assessed as inhibition of parasite growth after 72 hrs by parasite lactate dehydrogenase assay
Format: functional, organism-based
Conditions: W2, 72 h
Flag rule - IC50 less than 400 nM flags Yes; the remaining entries get No.

- Cl.Clc1ccc(Nc2cc3nc4ccccc4n(-c4ccc(Cl)cc4)c-3c/c2=N/CC23CCCN2CCC3)cc1: No
- Cl.c1ccc(Nc2cc3nc4ccccc4n(-c4ccccc4)c-3c/c2=N/CCCCCCC23CCCCN2CCCC3)cc1: Yes
- CC(C)/N=c1\cc2n(-c3ccc(Cl)cc3)c3ccccc3nc-2cc1Nc1ccc(Cl)cc1: No
- Cl.Clc1ccc(Nc2cc3nc4ccccc4n(-c4ccc(Cl)cc4)c-3c/c2=N/CCC23CCCN2CCC3)cc1: No
- Cl.c1ccc(Nc2cc3nc4ccccc4n(-c4ccccc4)c-3c/c2=N/CCCCC23CCCCN2CCCC3)cc1: Yes
- Clc1ccc(Nc2cc3nc4ccccc4n(-c4ccc(Cl)cc4)c-3c/c2=N/C[C@@H]2CCCN3CCCC[C@H]23)cc1: No
- COc1ccc(Nc2cc3nc4ccccc4n(-c4ccccc4)c-3c/c2=N/CCCCC23CCCCN2CCCC3)cn1.Cl: Yes
- Cl.c1ccc(Nc2cc3nc4ccccc4n(-c4ccccc4)c-3c/c2=N/CCN2CCCC2)cc1: Yes
